# Test system: UACC-257 melanoma
# method description: NCI-60 one-dose screen, 48 h (100 = growth as untreated, 0 = no growth, -100 = all killed)
# condition notes: 10 µM unless noted
Compounds without any hit were thinned out: in the full panel of roughly 83,000, 20% have a hit.
Checkbox rule: growth lower than 80% = class 1; growth not lower than 80% = class 0.

{"structure smiles string": "CC(C)(C)c1cc(NC(=O)Nc2ccc(-c3cn4c5c(sc4n3)CCc3c[nH]cc3-5)cc2)no1", "tested target": "UACC-257 melanoma", "label value": "class 1"}
{"structure smiles string": "CN1CCN(Cc2ccc(NC(=O)c3cncc(C#Cc4cnc5ccc(O[C@@H]6CCOC6)nn45)c3)cc2C(F)(F)F)CC1", "tested target": "UACC-257 melanoma", "label value": "class 1"}
{"structure smiles string": "COc1ccc(N2CCN(C3=C(Cl)C(=O)c4ncccc4C3=O)CC2)cc1", "tested target": "UACC-257 melanoma", "label value": "class 1"}
{"structure smiles string": "Cc1csc(/N=C(N)/N=C(\\N)c2cccs2)n1", "tested target": "UACC-257 melanoma", "label value": "class 0"}
{"structure smiles string": "C#CCOc1cccc(-c2nc(N)nc(Nc3ccccc3SSc3ccccc3Nc3nc(N)nc(-c4cccc(OCC#C)c4)n3)n2)c1", "tested target": "UACC-257 melanoma", "label value": "class 0"}

Problem: Determine whether this molecule shows growth lower than 80% (ties excluded): O=C(/C=C/c1cccc(C(F)(F)F)c1)Nc1cccc(C(F)(F)F)c1
Result: class 0

Problem: Record: CN1CCN(Cc2ccc(NC(=O)c3cncc(C#Cc4cnc5ccc(OCC(F)F)nn45)c3)cc2C(F)(F)F)CC1
Result: class 1

Problem: Record: O=C(Nc1cc(C(F)(F)F)cc(C(F)(F)F)c1)Nc1ccc2oc(=O)ccc2c1
Result: class 1

* * *

# System: SK-OV-3 ovarian
# method description: NCI-60 one-dose screen, 48 h (100 = growth as untreated, 0 = no growth, -100 = all killed)
# condition notes: 10 µM unless noted
This is part of a sample that, as a whole, favours compounds with a hit. Of some 83,000 tested, about 20% had one in any assay.
Checkbox rule: growth lower than 80% = true (1); growth not lower than 80% = false (0).

Sample answers from the record:
{"structure smiles string": "COc1cc2cc(Oc3ccc(NC(=O)Nc4ccc(F)c(C(F)(F)F)c4)cc3)c(C)nc2cc1OCCN(C)C", "label value": "false (0)"}
{"structure smiles string": "O=S(=O)(Oc1ccc(-c2cn3ccoc3n2)cc1)c1cccc(C(F)(F)F)c1", "label value": "false (0)"}
{"structure smiles string": "CN1CCN(c2ccc(Nc3nc(NCCCNS(=O)(=O)c4ccc(C(F)(F)F)cc4)c4sccc4n3)cc2)CC1", "label value": "true (1)"}
{"structure smiles string": "C/C(=N\\NC(N)=S)c1nnn(-c2ccc([N+](=O)[O-])cc2)c1C", "label value": "false (0)"}
{"structure smiles string": "Brc1cc(-c2cc(-c3ccc4c(c3)OCCO4)[nH]n2)cs1", "label value": "true (1)"}
{"structure smiles string": "COc1cc2oc(-c3cccc(NC(=O)[C@@H](N)C(C)C)c3)cc(=O)c2c(OC)c1OC", "label value": "false (0)"}
{"structure smiles string": "O=C(Nc1cc(C(F)(F)F)cc(C(F)(F)F)c1)Nc1ccc2oc(=O)ccc2c1", "label value": "true (1)"}

Let's switch to this molecule now.
Problem: Determine whether this molecule shows growth lower than 80% (ties excluded): O=C1C(SCc2ccccc2)=C(Cl)CN1c1ccccc1
Result: false (0)

* * *

// reported growth per item
# System: M14 melanoma
# method description: NCI-60 one-dose screen, 48 h (100 = growth as untreated, 0 = no growth, -100 = all killed)
# condition notes: 10 µM unless noted
This is part of a sample that, as a whole, favours compounds with a hit. Of some 83,000 tested, about 20% had one in any assay.
# output: bare number, implied unit %

{"compound": "COC(=O)c1cccc(NC2=C(Cl)C(=O)C(C)=C(C)C2=O)c1", "tested target": "M14 melanoma", "readout type": "growth", "readout number": 92.3}

Problem: I would be grateful if you could share the reported growth for NCCNC(=O)c1cccc(COc2ccccc2NC(=O)c2cc(Cl)c(Cl)[nH]2)c1 .
Result: 101

* * *

# Test system: SK-MEL-28 melanoma
# method description: NCI-60 one-dose screen, 48 h (100 = growth as untreated, 0 = no growth, -100 = all killed)
# condition notes: 10 µM unless noted
Compounds without any hit were thinned out: in the full panel of roughly 83,000, 20% have a hit.
# thresholds on growth define classes: lower level: < 50%; middle level: ≥ 50% and < 90%; upper level: ≥ 90%

{"molecule": "COc1ccc([C@@H]2C(=O)N(c3cc(OC)c(OC)c(OC)c3)[C@H]2c2ccc(OC)c(O)c2)cc1", "label value": "middle level"}
{"molecule": "NC(=O)n1c(=O)n(-c2cccc(C(F)(F)F)c2)c(=O)c2cc(-c3ccc(F)cc3F)ccc21", "label value": "lower level"}
{"molecule": "CCOC(=O)c1cccnc1Nc1ccc(NC(=O)Nc2ccc(Cl)c(C(F)(F)F)c2)cc1", "label value": "lower level"}
{"molecule": "CCCCN1C(=O)/C(=c2\\sc3n(c2=O)C2C(NN=3)N(CC)C(=O)N2CC)c2cc(C)ccc21 (centres undefined)", "label value": "upper level"}
{"molecule": "CNC(=O)c1cc(N2CCc3cc(NC(=O)Nc4ccc(N5CCN(C)CC5)c(C(F)(F)F)c4)ccc32)ccn1", "label value": "lower level"}
{"molecule": "Cc1ccc(CSC2=C(Cl)CN(c3ccc(Cl)cc3)C2=O)cc1", "label value": "upper level"}
{"molecule": "Cc1nc(/N=C(N)/N=C(\\N)c2cccc(Br)c2)sc1C", "label value": "middle level"}
{"molecule": "C#C[C@]1(O)CC[C@H]2[C@@H]3CC=C4c5sc(Nc6cccc(F)c6)nc5CC[C@]4(C)[C@H]3CC[C@@]21C", "label value": "lower level"}
{"molecule": "CCOC(=O)c1cccc(NC2=C(Cl)C(=O)c3nc(C)ccc3C2=O)c1", "label value": "upper level"}
{"molecule": "Cn1cc(-c2nc(N)nnc2-c2c[nH]c3ccc(Br)cc23)c2cc(F)ccc21", "label value": "upper level"}

Let's switch to this molecule now.
Problem: Into which category would you place CC(=O)Nc1cc(N2CCOCC2)c2nc(NC(=O)c3[nH]c(C)c(Cl)c3Cl)sc2c1 ?
Result: middle level

* * *

# System: OVCAR-8 ovarian
# method description: NCI-60 one-dose screen, 48 h (100 = growth as untreated, 0 = no growth, -100 = all killed)
# condition notes: 10 µM unless noted
The panel holds about 83,000 compounds, 20% with a hit somewhere; the sample as a whole holds those more often.
readout type: growth (%)
# output: bare number, implied unit %

Please review the following examples before continuing.
{"compound": "O=S(=O)(NCCCNc1nccc(-c2[nH]c(-c3ccccc3)nc2-c2ccc(F)c(O)c2)n1)c1cccc(F)c1", "growth, %": 82}
{"compound": "C[C@@H]1OCC2(CCN(c3cnc(C(=O)Nc4cc(F)cc5cccnc45)cn3)CC2)[C@@H]1N", "growth, %": 86.8}
{"compound": "Cc1[nH]c(C(=O)Nc2ccc(C(N)=O)cc2N2CCOC(C)C2)c(Cl)c1Cl (stereo not given)", "growth, %": 96.8}
{"compound": "COc1cc2cc(Oc3ccc(NC(=O)c4cc(C(F)(F)F)cc(C(F)(F)F)c4)cc3)c(C)nc2cc1OCCN1CCOCC1", "growth, %": 80.1}
{"compound": "CN1CCN(Cc2ccc(NC(=O)c3cncc(C#Cc4cnc(N)nc4)c3)cc2C(F)(F)F)CC1", "growth, %": 33.1}
{"compound": "O=C(Nc1cccc(Cl)c1)Nc1nc2cc([N+](=O)[O-])ccc2o1", "growth, %": 33.9}

Problem: Field: growth (OVCAR-8 ovarian). Entry: O=C(CSc1cc[n+](CCCCO)c2ccccc12)n1ccc2ccccc21
Result: 95.5

* * *

// reported growth per item
# Test system: COLO 205 colon
# method description: NCI-60 one-dose screen, 48 h (100 = growth as untreated, 0 = no growth, -100 = all killed)
# condition notes: 10 µM unless noted
The panel holds about 83,000 compounds, 20% with a hit somewhere; the sample as a whole holds those more often.
# output: bare number, implied unit %

{"compound": "CC(O)c1cccc(/C(N)=N/C(N)=N/c2nc3ccccc3s2)c1 (centres undefined)", "readout type": "growth", "readout number": 109}

Problem: I would be grateful if you could share the reported growth for CS(=O)(=O)c1ccc(/C(=N/N=C(N)N)c2ccc(Cl)cc2)cc1 .
Result: 91.5

Problem: Record: COc1ccc(C(C)=C(c2ccc(OCCN(C)C)cc2)c2ccc(OCCN(C)C)cc2)cc1
Result: -73

Problem: Record: COc1cc(OC)cc(-c2cc(-c3c[nH]c4ccccc34)nc(-c3c[nH]c4ccccc34)c2C#N)c1
Result: 110

Problem: Record: CCOC(=O)C(=O)Nc1ccc2c(ccn2C(=O)c2cccc(F)c2)c1
Result: 108

Problem: Record: O=C(CCCCCC/C=C\c1csc(Br)n1)NO
Result: 95
